target system: TRPC4:C4 (Homo sapiens, UniProt Q9UBN4)
Construct: expressed in transfected cells; host or cells: HEK T-REx (tetracycline-induced)
Sequence (Q9UBN4 1-893 isoform Q9UBN4-2): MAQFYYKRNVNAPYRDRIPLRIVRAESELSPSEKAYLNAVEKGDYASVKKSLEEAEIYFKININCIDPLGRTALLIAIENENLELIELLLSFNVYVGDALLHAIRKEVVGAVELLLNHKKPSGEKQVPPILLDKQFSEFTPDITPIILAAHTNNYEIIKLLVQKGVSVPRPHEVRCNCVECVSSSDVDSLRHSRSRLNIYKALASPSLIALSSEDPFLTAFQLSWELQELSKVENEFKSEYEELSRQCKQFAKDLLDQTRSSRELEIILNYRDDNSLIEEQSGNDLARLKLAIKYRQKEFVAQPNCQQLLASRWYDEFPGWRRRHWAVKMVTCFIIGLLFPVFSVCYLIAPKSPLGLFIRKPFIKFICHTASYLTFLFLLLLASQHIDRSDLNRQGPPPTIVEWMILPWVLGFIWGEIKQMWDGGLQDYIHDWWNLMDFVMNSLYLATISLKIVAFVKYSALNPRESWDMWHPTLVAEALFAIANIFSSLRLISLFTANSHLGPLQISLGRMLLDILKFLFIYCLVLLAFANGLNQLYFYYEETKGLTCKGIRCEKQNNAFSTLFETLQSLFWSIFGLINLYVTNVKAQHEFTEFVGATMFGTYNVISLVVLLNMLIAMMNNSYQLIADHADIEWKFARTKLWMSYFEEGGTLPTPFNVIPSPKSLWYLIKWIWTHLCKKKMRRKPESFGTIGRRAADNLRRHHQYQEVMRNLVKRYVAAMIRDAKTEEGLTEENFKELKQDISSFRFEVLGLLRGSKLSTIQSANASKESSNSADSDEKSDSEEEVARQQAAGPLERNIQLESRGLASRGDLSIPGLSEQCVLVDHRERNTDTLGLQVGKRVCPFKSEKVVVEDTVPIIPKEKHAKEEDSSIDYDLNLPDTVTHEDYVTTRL
method notes: [Ca2+]i recordings (Fura-2), TRPC4:C4 in HEK T-REx cells
Assay type: cell-based
assay context: HEK T-REx; activator S1P (10 μM)
Method: Based on the findings described above, we wondered whether AC1903—which is typically used as a TRPC5 inhibitor at concentrations of 30–100 μM in cellular assays ([29], [56])—might have limited selectivity for TRPC5 channels and whether its effect on intracellular G418 levels and PTC readthrough might be the consequence of inhibition of other or multiple targets. All well-characterized TRPC channel inhibitors reported to date modulate multiple TRP(C) channels ([34], [35], [36]). […]
metric name: IC50 (µM)
Output spec: scalar in µM, unitless text.

Input line: Annotate the compound c1ccc(Cn2c(NCc3ccco3)nc3ccccc32)cc1 with its measured IC50.
Output line: 1.8

---

target system: TRPC4:C4 (Homo sapiens, UniProt Q9UBN4)
Construct: expressed in transfected cells; host or cells: HEK T-REx (tetracycline-induced)
method notes: [Ca2+]i recordings (Fura-2), TRPC4:C4 in HEK T-REx cells
Format: cell-based
assay context: HEK T-REx; activator EA (30 nM)
metric name: IC50 (µM)
Output spec: scalar in µM, unitless text.

Input line: Annotate the compound c1ccc(Cn2c(NCc3ccco3)nc3ccccc32)cc1 with its measured IC50.
Output line: 2.1
